pIC50 tested on PDGFRα kinase (Homo sapiens): recorded values
Sequence (P16234 24-1089): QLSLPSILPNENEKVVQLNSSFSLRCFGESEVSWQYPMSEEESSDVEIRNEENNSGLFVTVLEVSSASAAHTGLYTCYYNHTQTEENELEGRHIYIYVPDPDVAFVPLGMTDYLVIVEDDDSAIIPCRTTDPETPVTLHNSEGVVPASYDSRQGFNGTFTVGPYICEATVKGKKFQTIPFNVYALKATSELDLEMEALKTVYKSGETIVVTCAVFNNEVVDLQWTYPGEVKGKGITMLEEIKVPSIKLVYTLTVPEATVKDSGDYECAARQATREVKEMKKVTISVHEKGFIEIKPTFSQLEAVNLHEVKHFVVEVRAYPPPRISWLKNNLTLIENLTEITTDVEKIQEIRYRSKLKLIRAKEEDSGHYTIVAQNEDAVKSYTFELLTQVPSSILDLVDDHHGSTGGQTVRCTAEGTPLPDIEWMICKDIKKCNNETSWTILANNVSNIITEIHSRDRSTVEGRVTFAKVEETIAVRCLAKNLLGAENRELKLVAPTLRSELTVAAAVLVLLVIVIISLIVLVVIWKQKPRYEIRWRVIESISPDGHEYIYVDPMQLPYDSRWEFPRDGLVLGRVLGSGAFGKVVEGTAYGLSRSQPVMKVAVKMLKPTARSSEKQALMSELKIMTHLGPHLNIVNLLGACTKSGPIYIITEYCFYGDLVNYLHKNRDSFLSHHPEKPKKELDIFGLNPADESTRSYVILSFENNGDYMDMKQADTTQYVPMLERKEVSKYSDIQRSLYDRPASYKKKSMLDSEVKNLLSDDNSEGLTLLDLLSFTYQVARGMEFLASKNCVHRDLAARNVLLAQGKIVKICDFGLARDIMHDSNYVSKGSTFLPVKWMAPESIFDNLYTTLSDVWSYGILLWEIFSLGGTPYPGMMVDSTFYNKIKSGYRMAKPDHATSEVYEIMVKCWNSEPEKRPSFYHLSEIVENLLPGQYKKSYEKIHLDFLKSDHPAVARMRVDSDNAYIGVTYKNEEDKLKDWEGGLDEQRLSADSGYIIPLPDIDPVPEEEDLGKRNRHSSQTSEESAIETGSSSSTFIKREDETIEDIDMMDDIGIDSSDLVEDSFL
pIC50: −log10 of the molar value.

# compound CN(C)Cc1ccc(-c2cc3c(s2)Cc2c(-c4ccc5cnn(C)c5c4)n[nH]c2-3)cc1 ; its pIC50 = 8.00 to 9.00

Value of measured pIC50 for the entry Cn1ncc2ccc(-c3n[nH]c4c3Cc3sc(-c5ccc(CN6CCSCC6)cc5)cc3-4)cc21 : 7.52 to 8.00

// sample Cn1ncc2ccc(-c3n[nH]c4c3Cc3sc(-c5ccc(CN6CCOCC6)s5)cc3-4)cc21 , its pIC50 was 7.52 to 8.00

Input Cn1ncc2ccc(-c3n[nH]c4c3Cc3sc(-c5ccnc(Cl)c5)cc3-4)cc21 . Output pIC50: 7.52 to 8.00

// field: pIC50; key: CN(C)c1ccc(-c2cc3c(s2)Cc2c(-c4ccc5cnn(C)c5c4)n[nH]c2-3)cn1 ; value = 7.52 to 8.00

Please fill in: pIC50 reported for CN1CCN(Cc2cccc(-c3cc4c(s3)Cc3c(-c5ccc6cnn(C)c6c5)n[nH]c3-4)c2)CC1 = 7.52 to 8.00

So, CN(C)Cc1ccc(-c2cc3c(s2)Cc2c(-c4ccc5cnn(C)c5c4)n[nH]c2-3)cn1 ? Its pIC50 was 6.52 to 7.00

Measured pIC50 of C[C@@H]1CN(Cc2ccc(-c3cc4c(s3)Cc3c(-c5ccc6cn[nH]c6c5)n[nH]c3-4)cc2)C[C@H](C)O1 : 8.00 to 9.00

In plain terms, Cc1cc(-c2cc3c(s2)Cc2c(-c4ccc5cnn(C)c5c4)n[nH]c2-3)ccn1 has a documented pIC50 of 7.52 to 8.00

pIC50 reading for Cn1ncc2ccc(-c3n[nH]c4c3Cc3sc(-c5cc(C(=O)N6CCOCC6)ccn5)cc3-4)cc21 : 8.00 to 9.00

Briefly, pIC50 measured for Cn1ncc2ccc(-c3n[nH]c4c3Cc3sc(-c5cccc(OCCN6CCOCC6)c5)cc3-4)cc21 : 7.52 to 8.00

Lab book: pIC50 of Cc1ccc(-c2cc3c(s2)Cc2c(-c4ccc5cn[nH]c5c4)n[nH]c2-3)cn1 noted as 8.00 to 9.00

Noted for CCC(c1ccc(-c2cc3c(s2)Cc2c(-c4ccc5cnn(C)c5c4)n[nH]c2-3)cc1)N1CCOCC1 (stereo not drawn) : its pIC50 reads 7.52 to 8.00

Sample Cc1cc(-c2cc3c(s2)Cc2c(-c4ccc5cnn(C)c5c4)n[nH]c2-3)ccc1CN1CCOCC1 ; pIC50 observed: 7.52 to 8.00

Looking up CN1CCN(Cc2ccc(-c3cc4c(s3)Cc3c(-c5ccc6cn[nH]c6c5)n[nH]c3-4)cc2)CC1 , I see its pIC50 listed as 8.00 to 9.00

Where these numbers come from: patent US12448394B2
